# target: E. coli MurA (UDP-N-acetylglucosamine 1-carboxyvinyltransferase, EC:2.5.1.7) (Escherichia coli, UniProt P0A749)
# Sequence (P0A749 whole entry): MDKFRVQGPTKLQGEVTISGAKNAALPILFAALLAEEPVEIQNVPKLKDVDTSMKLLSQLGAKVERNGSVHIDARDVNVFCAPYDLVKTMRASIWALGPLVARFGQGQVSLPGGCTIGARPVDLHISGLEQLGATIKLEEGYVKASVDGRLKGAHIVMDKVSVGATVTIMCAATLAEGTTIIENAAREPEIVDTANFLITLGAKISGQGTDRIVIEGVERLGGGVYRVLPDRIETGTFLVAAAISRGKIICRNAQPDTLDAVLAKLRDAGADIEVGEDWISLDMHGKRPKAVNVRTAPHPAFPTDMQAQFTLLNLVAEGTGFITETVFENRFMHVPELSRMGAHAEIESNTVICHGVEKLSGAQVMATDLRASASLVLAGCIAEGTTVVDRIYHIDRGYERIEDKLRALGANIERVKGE
# experiment.summary: MurA inhibitory assay (colorimetric malachite green method)
# Format: biochemical
# Parameters: inferred from IMAC purification with imidazole elution; made in house; host or cells: Escherichia coli NiCo21(DE3)
value.kind: IC50

smiles.string: C#Cc1cccc[n+]1C
result: 50 µM
//
smiles.string: C[n+]1ccccc1I
result: 15.5 µM
//
smiles.string: C[n+]1ccccc1Cl
result: 51.6 µM
